molecular target: human IDO1 (Homo sapiens, UniProt P14902); test: Assessment of human IDO-1 inhibitory activity in HEK cells (human IDO1/HEK293 cells, kynurenine read-out with Ehrlich reagent, absorbance 490 nm); assay type: cell-based; design: expressed in transfected cells; conditions: HEK Human IDO-1 cellular assay
Sequence (P14902 whole entry): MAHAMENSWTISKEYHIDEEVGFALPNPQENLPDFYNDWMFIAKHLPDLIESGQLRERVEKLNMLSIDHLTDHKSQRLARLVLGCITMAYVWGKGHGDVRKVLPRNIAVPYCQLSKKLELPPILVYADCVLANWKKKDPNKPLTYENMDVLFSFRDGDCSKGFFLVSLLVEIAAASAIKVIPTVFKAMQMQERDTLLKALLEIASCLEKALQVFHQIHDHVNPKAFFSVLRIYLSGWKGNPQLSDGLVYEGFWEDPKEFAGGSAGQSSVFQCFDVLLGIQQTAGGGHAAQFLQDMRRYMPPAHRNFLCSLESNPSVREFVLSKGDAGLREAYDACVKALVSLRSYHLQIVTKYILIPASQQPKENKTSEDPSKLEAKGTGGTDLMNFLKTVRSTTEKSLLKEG
metric: IC50

{"compound": "CCOc1ncc(Nc2cc(C(CC(=O)O)c3ccccc3)ccc2N(CC)C2CCOCC2)cn1 (single isomer, unassigned) [Example 588]", "assay-result": "> 50 nM"}
{"compound": "CCN(c1ccc([C@@H](COC)CC(=O)O)cc1Nc1ccc(F)cc1)C1CCOCC1 (single isomer, unassigned) [Example 375]", "assay-result": "< 5 nM"}
{"compound": "COCC(CC(=O)O)c1ccc(N(CC(C)C)C2CCCCC2)c(NC(=O)Nc2ccccc2F)c1 (racemic) [Example 983]", "assay-result": "< 5 nM"}
{"compound": "CC[C@@H](CC(=O)O)c1ccc(N(CC)C2CCOCC2)c(NC(=O)Nc2ccc(OC)cc2)c1 (single isomer, unassigned) [Example 492]", "assay-result": "< 50 nM"}
{"compound": "CC[C@@H](CC(=O)O)c1ccc(N(CC(C)(C)O)C2CCCCC2)c(Nc2ccc(Cl)cc2)c1 (single isomer, unassigned) [Example 231]", "assay-result": "< 5 nM"}
{"compound": "COCC(CC(=O)O)c1ccc(N(CC(C)C)C2CCCCC2)c(NC(=O)Cc2ccccc2F)c1 (racemic) [Example 1230]", "assay-result": "< 50 nM"}
{"compound": "CCOc1ncc(Nc2cc([C@H](CC)CC(=O)O)ccc2N2CCOC[C@@H]2C(C)C)cn1 (single isomer, unassigned) [Example 94]", "assay-result": "< 50 nM"}
{"compound": "CCOc1ccc(NC(=O)Nc2cc(C(COC)CC(=O)O)cc(F)c2N(CC(C)C)C2CCCCC2)cc1 (single isomer, unassigned) [Example 1153]", "assay-result": "< 50 nM"}
{"compound": "CCC(CC(=O)O)c1ccc(N2CCC[C@H]2C(C)(C)F)c(Nc2ccc3nc(C)sc3c2)c1 (single isomer, unassigned) [Example 789]", "assay-result": "> 50 nM"}
{"compound": "CC(C)(CC(=O)O)c1ccc(N2CCC[C@H]2C(C)(C)O)c(Nc2ccc(Cl)cc2)c1 [Example 808]", "assay-result": "< 50 nM"}
{"compound": "CCC(CC(=O)O)c1cc(NC(=O)Nc2cncnc2)c(N(CC(C)C)C2CCCCC2)cc1F (racemic) [Example 1122]", "assay-result": "< 5 nM"}
{"compound": "CCC(CC(=O)O)c1ccc(N2CCC[C@H]2C(C)(C)O)c(Nc2ccc(C#N)cc2)c1 (single isomer, unassigned) [Example 825]", "assay-result": "< 50 nM"}
{"compound": "CC[C@@H](CC(=O)O)c1ccc(N(CC)C2CCOCC2)c(Nc2ccc(C#N)cc2)c1 (single isomer, unassigned) [Example 458]", "assay-result": "< 5 nM"}

====

Parameter: pIC50. Scope: all listed entries.
biological target: human IDO1 (Homo sapiens, UniProt P14902); assay: Assessment of human IDO-1 inhibitory activity in HEK cells (human IDO1/HEK293 cells, kynurenine read-out with Ehrlich reagent, absorbance 490 nm); format: cell-based; set-up: expressed in transfected cells; conditions: HEK Human IDO-1 cellular assay
pIC50: −log10 of the molar value.

{"molecule": "CCC(CC(=O)O)c1cc(F)c(N(CC(C)C)CC(C)C)c(NC(=O)Nc2ccc(C#N)c(Cl)c2)c1 (racemic)", "pIC50": "> 7.30"}
{"molecule": "CC[C@H](CC(=O)O)c1ccc(N(CC(C)C)C2CCS(=O)(=O)CC2)c(NC(=O)Nc2ccc(C)cc2)c1 (single isomer, unassigned)", "pIC50": "< 7.30"}
{"molecule": "CCOc1ccc(NC(=O)Nc2cc([C@H](CC)CC(=O)O)ccc2N(CC)C2CCOCC2)cc1 (single isomer, unassigned)", "pIC50": "> 7.30"}
{"molecule": "CCCN(CC1CC1)c1ccc(C(CC)CC(=O)O)cc1Nc1cnc(OCC)nc1 (single isomer, unassigned) [Example 660]", "pIC50": "> 8.30"}
{"molecule": "CCC(CC(=O)O)c1ccc(N(CC2CC2)C2CCOCC2)c(NC(=O)Nc2ccc(C)cc2)c1 (stereo not shown) [Example 698]", "pIC50": "> 7.30"}
{"molecule": "CC(C)CN(CC(C)C)c1ccc(C(C)(C)CC(=O)O)cc1Nc1ccc2c(c1)OC(F)(F)O2", "pIC50": "> 7.30"}
{"molecule": "Cc1ccc(NC(=O)Nc2cc(C(C)CC(=O)O)c(F)cc2N(CC(C)C)C2CCCCC2)cc1 (single isomer, unassigned) [Example 956]", "pIC50": "> 8.30"}
{"molecule": "CC(C)(CC(=O)O)c1ccc(N2CCC[C@H]2C(C)(C)O)c(Nc2ccc(C#N)cc2)c1", "pIC50": "> 7.30"}
{"molecule": "CCOc1ccc(NC(=O)Nc2cc([C@H](CC)CC(=O)O)ccc2N2CCC[C@H]2C(C)(C)O)cc1 (single isomer, unassigned)", "pIC50": "< 7.30"}
{"molecule": "CCC(CC(=O)O)c1ccc(N2CCC[C@H]2C(C)(C)O)c(NC(=O)Nc2ccc(Cl)cc2F)c1 (single isomer, unassigned)", "pIC50": "< 7.30"}
{"molecule": "CC[C@H](CC(=O)O)c1ccc(N2CCC[C@H]2C(C)(C)O)c(NC(=O)Nc2ccc(C)cc2)c1 (single isomer, unassigned)", "pIC50": "< 7.30"}
{"molecule": "CC[C@@H](CC(=O)O)c1ccc(N2CCOC[C@@H]2C(C)C)c(NC(=O)Nc2ccc(OC)cc2F)c1 (single isomer, unassigned)", "pIC50": "< 7.30"}
{"molecule": "CC[C@H](CC(=O)O)c1ccc(N2C[C@@H](C)O[C@@H](C)C2)c(NC(=O)Nc2ccc(C)cc2)c1 (single isomer, unassigned)", "pIC50": "< 7.30"}
{"molecule": "CCOc1ncc(Nc2cc(C(CC(=O)O)c3ccccc3)ccc2N(CC)C2CCOCC2)cn1 (single isomer, unassigned) [Example 578]", "pIC50": "> 7.30"}
{"molecule": "CCOc1ccc(NC(=O)Nc2cc(C(CC)CC(=O)O)c(F)cc2N(CC(C)C)C2CCCCC2)c(F)c1 (single isomer, unassigned) [Example 1117]", "pIC50": "> 8.30"}
{"molecule": "CCOc1ncc(Nc2cc(C(CC)CC(=O)O)cc(F)c2N(CC(C)C)CC(C)C)cn1 (single isomer, unassigned)", "pIC50": "> 8.30"}
{"molecule": "CCC(CC(=O)O)c1ccc(N2CCC[C@H]2C(C)(C)O)c(Nc2ccc(Cl)cc2)c1 (single isomer, unassigned) [Example 836]", "pIC50": "> 7.30"}
{"molecule": "COCC(CC(=O)O)c1ccc(N(CC(C)C)CC(C)C)c(NC(=O)Nc2cc(C)on2)c1 (single isomer, unassigned) [999-1]", "pIC50": "> 7.30"}
{"molecule": "CCN(c1ccc(C(CC(=O)O)c2ccccc2)cc1Nc1ccc(OC(F)F)cc1)C1CCOCC1 (single isomer, unassigned)", "pIC50": "> 7.30"}
{"molecule": "CCOc1ncc(Nc2cc(C(CC)CC(=O)O)ccc2N(CC2CC2)C2CCOCC2)cn1 (single isomer, unassigned)", "pIC50": "> 8.30"}
{"molecule": "CC[C@H](CC(=O)O)c1ccc(N(CC)C2CCOCC2)c(NC(=O)Nc2cc(C)on2)c1 (single isomer, unassigned)", "pIC50": "< 7.30"}
{"molecule": "Cc1nc2ccc(Nc3cc(C(CC(=O)O)c4ccccc4)cc(F)c3N(CC(C)C)CC(C)C)cc2s1 (single isomer, unassigned)", "pIC50": "< 7.30"}
{"molecule": "CCN(c1ccc(C(C)CC(=O)O)cc1Nc1ccc2c(c1)OC(F)(F)O2)C1CCOCC1 (single isomer, unassigned)", "pIC50": "> 8.30"}
{"molecule": "COCC(CC(=O)O)c1ccc(N(CC(C)C)CC(C)C)c(NC(=O)Nc2cncnc2)c1 (single isomer, unassigned) [997-2]", "pIC50": "> 7.30"}
{"molecule": "CCN(c1ccc(C(C)CC(=O)O)cc1Nc1ccc(F)cc1)C1CCOCC1 (single isomer, unassigned)", "pIC50": "> 8.30"}

====

target: UniProt:P14902; test: Assessment of human IDO-1 inhibitory activity in HEK cells (human IDO1/HEK293 cells, kynurenine read-out with Ehrlich reagent, absorbance 490 nm); format: cell-based; parameters: expressed in transfected cells; conditions: HEK Human IDO-1 cellular assay
Parameter: IC50. Scope: all listed entries.

{"compound": "CC[C@@H](CC(=O)O)c1ccc(N2CCOC[C@@H]2C(C)C)c(Nc2ccc3nc(C)sc3c2)c1 (single isomer, unassigned) [Example 80]", "IC50": "> 50 nM"}
{"compound": "COCC(CC(=O)O)c1ccc(N(CC2CC2)C2CCOCC2)c(Nc2ccc(Cl)c(OCC(F)F)c2)c1 (single isomer, unassigned) [Example 684]", "IC50": "< 50 nM"}
{"compound": "COCC(CC(=O)O)c1ccc(N(CC(C)C)C2CCOCC2)c(NC(=O)Nc2ccc(Cl)cc2F)c1 (single isomer, unassigned) [Example 1217]", "IC50": "< 5 nM"}
{"compound": "COCC(CC(=O)O)c1ccc(N(CC2CC2)C2CCOCC2)c(Nc2ccc3nc(C)sc3c2)c1 (single isomer, unassigned) [Example 680]", "IC50": "< 50 nM"}
{"compound": "CCN(c1ccc([C@H](COC)CC(=O)O)cc1NC(=O)Nc1ccc(Cl)cc1F)C1CCOCC1 (single isomer, unassigned) [Example 434]", "IC50": "< 50 nM"}
{"compound": "CCc1ccc(Nc2cc(C(CC)CC(=O)O)cc(F)c2N(CC(C)C)CC(C)C)cc1 (single isomer, unassigned) [Example 96]", "IC50": "< 50 nM"}
